Biological target: T1, mouse SEMA4A expressed on expi293 cells (UniProt ID Q62178) (mouse, UniProt Q62178 33-760)
T1 construct: Transient transfection in expi293 cells
T1 sequence: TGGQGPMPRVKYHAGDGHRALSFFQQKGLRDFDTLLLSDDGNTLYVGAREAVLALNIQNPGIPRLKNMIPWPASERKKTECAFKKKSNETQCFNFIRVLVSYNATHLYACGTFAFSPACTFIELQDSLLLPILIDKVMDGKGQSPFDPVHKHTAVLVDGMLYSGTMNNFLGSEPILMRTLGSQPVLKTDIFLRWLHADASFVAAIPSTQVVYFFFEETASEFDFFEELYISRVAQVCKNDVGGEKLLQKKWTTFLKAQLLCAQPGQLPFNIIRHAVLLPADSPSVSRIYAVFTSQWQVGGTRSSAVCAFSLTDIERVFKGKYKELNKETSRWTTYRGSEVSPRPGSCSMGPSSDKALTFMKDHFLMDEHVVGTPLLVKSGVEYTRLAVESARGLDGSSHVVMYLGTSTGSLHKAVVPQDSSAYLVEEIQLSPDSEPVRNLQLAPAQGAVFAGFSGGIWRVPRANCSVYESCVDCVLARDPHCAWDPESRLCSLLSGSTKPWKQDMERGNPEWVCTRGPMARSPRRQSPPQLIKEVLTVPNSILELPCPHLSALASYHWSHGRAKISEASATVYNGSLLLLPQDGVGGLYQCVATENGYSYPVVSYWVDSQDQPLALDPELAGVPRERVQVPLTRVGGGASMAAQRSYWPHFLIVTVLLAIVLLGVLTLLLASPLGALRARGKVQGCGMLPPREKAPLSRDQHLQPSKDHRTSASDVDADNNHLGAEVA
Assay: Mirrorball direct binding, dilution series on expi293 cells transiently transfected with mouse SEMA4A, anti-human Alexa Fluor 647
readout_name: binding result

Previously resolved entries follow.
>>> reported_measurement("C0120924 (antibody, V domains shown, 239iCys and S442C (EU numbering) in the constant region, one of the 6 germlined clones of m49; purified, unconjugated; also called C0120924 germlined human Alya IgG1) VH: QVQLVQSGAEVKKPGASVKVSCKASGYKLNDPGVHGVSWVRQAPGQGLEWMGWISTLNGDTRYAQKFQGRVTMTTDSSTSTIYMELRSLRSDDTAVYYCARDDYTAIFDFWGQGTLVTVSS VL: SSVLTQPPSVSVAPGQTARITCGGSNIGSQSVHWYQQKPGQAPVLVVYDDSDRPSGIPERFSGSKSGNTATLTISRVEAGDEADYYCQVWDSSTDHHVFGTGTKVTVL")
"binds"
>>> reported_measurement("5Hg4-5Lg5 human Alya IgG1 (antibody, V domains shown, Humanised 5E3; human IgG1 Alya constant (239iCys, S442C, EU), lambda light chain; purified, unconjugated) VH: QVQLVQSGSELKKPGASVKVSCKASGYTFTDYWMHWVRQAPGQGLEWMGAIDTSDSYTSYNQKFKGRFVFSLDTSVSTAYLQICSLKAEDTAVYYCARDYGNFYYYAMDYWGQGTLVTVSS VL: QSVVTQPPSVSGAPGQRVTISCRSSTGAVTTSNYANWYQQLPGTAPKLLIYGTNNRAPGVPDRFSGSKSGASASLAITGLQAEDEADYYCALWYSNHWVFGGGTKLTVL")
"binds"
>>> reported_measurement("mouse 5E3 expressed as human IgG1 Alya (antibody, V domains shown, Mouse variable domains on human IgG1 Alya constant (pEU1.22; 239iCys and S442C, EU numbering); purified, unconjugated; also called 5E3 IgG1 Alya) VH: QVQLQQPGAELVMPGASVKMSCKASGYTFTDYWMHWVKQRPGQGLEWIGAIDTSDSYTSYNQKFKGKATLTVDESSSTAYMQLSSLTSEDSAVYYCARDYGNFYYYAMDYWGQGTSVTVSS VL: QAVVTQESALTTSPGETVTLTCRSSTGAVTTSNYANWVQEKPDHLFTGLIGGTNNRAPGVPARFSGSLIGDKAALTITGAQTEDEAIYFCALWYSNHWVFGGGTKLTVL")
"binds"
>>> reported_measurement("C0120903 human Alya IgG1 (antibody, V domains shown, Fully human, phage display derived; human IgG1 Alya constant (239iCys, S442C, EU); unconjugated) VH: EVQLVQSGAEVKKPGSSMKVSCKASGGTFNSYTINWVRQAPGQGLEWVGGFIPIFGTADYAQKFHGRVAITADESMSTAYMELSSLRSEDTAVYYCARAPLGSEPFDYWGQGTMVTVSS VL: SYVLTQPPSVSVAPGQTARITCGGNNIGSKSVHWYQQKPGQAPVLVVYDDSDRPSGIPERFSGSNSGNTATLTISRVEAGDEADYYCQVWDSSSDHLVFGGGTKLTVL")
"binds"
>>> reported_measurement("C0120910 (antibody, V domains shown, 239iCys and S442C (EU numbering) in the constant region, purified, unconjugated; also called C0120910 human Alya IgG1 (unconjugated)) VH: QVQLVESGGGVVQPGRSLRLSCEASEFTFSNYAMHWVRQAPDKGLEWVAGILYDGATAHYADSVKGRFTISRDNSKNTLYLQINSLRAEDTAVYYCARAHYYDYWSGLSFEYWGRGTLVTVSS VL: QSVLTQPPSASVSPGQTASIPCSGDDLGDKYIYWYQQKPGQSPVLVIYQDSRRPPGIPERFSGSNSGNTATLTISGTQPMDEADYYCQTWDTSSASAVFGGGTKVTVL")
"binds"

Q: Look at this binder and give its reported binding result. C0120921 (antibody, V domains shown, 239iCys and S442C (EU numbering) in the constant region, purified, unconjugated; also called C0120921 human Alya IgG1 (unconjugated)) VH: EVQLVQSGPEVKKPGASVKISCKASGYKLNDPGVHGVSWVRQAPGQGLEWMGWISTLQGDTRYAQKFQGRVTMATDSSTSTIYMDLRSLKSDDTALYYCARDDYTAIFDFWGRGTLVTVSS VL: QSVLTQPPSVSVAPGQTASITCGGSNIGSQSVHWYQQKPGQAPVLVVYDDSDRPSGIPERFSGSKSGNTASLILSRVEAGDEADYYCQVWDSSTDHHVFGTGTKVTVL
A: binds

Q: Look at this binder and give its reported binding result. 5Hg2-5Lg3 human Alya IgG1 (antibody, V domains shown, Humanised 5E3; human IgG1 Alya constant (239iCys, S442C, EU), lambda light chain; purified, unconjugated) VH: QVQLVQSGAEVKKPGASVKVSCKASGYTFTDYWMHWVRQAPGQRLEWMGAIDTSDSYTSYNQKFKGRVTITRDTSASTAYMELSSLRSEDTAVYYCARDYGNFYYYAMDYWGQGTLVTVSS VL: QTVVTQEPSFSVSPGGTVTLTCRSSTGAVTTSNYANWYQQTPGQAPRTLIYGTNNRAPGVPDRFSGSILGNKAALTITGAQADDESDYYCALWYSNHWVFGGGTKLTVL
A: binds

Data credit: patent US20250152729A1
